Experimental target: T1, recombinant dimeric c-Met (R&D systems, 358-MT/CF) (human, UniProt P08581 25-932)
T1 construct: Bought product; also called Fc-Met; recombinant c-Met
T1 sequence (P08581 25-932 limits assumed): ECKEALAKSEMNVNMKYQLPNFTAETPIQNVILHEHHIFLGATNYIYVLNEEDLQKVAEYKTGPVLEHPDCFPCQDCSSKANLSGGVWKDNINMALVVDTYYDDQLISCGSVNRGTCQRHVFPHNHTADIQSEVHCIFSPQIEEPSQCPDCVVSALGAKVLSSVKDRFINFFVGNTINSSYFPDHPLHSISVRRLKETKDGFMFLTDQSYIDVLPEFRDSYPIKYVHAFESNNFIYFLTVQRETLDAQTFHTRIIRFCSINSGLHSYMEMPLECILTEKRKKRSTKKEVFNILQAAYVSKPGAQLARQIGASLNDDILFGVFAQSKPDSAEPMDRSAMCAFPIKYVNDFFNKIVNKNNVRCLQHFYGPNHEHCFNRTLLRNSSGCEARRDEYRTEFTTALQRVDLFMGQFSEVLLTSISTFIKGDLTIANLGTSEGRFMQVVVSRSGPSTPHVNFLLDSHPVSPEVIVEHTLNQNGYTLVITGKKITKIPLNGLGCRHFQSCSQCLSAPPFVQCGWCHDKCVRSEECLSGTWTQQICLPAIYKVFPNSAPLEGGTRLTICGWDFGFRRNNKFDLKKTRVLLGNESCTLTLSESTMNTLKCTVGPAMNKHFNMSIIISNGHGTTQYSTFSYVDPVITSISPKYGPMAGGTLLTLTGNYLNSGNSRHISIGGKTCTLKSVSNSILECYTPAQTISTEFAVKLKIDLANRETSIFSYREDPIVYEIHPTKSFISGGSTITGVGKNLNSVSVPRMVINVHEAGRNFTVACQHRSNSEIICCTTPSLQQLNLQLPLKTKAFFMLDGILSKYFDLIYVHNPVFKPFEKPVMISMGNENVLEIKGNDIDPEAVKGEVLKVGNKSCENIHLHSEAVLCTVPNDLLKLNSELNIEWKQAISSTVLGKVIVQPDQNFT
Assay protocol: SPR, periplasmic Fab over Fc-Met (around 3000 RU) on CM5 chip
Form field: koff (one value per entry).
# number only, unit s⁻¹ dropped from output

Binder	koff, s⁻¹
48A11 VL shuffled Fab (Fab, V domains shown, VL-shuffled Fab with the 38H10 heavy chain, periplasmic extract) VH: EVQLVQPGVELRNPGASVKVSCKASGYIFTMNSIDWVRQAPGQGLEWMGRIDPEDGGTKYAQKFQGRVTFTADTSTSTAYVELNSLRSEDTAVYYCARVDDYYLGYDYWGQGTQVTVSS VL: DIVMTQTPSSVTAAVGEKVAINCKSSQSVLYNPNQKSYLAWYQQRPGQSPRLLIYWASTRESGVPDRFSGSGSTTDFALTISSFQPEDAAVYYCQQGYSFPYSFGSGTRLEIR	0.00025

Quote koff reported for 49A1 VL shuffled Fab (Fab, V domains shown, VL-shuffled Fab with the 36C4Q heavy chain, periplasmic extract) VH: QVQLVESGPGLVKPSQTLSLTCAVSGGSITTNYYYWSWIRQSPGKGLEWMGVIAYDGSTDYSPSLKSRTSISRDTSKNQFSLQLSSVTPEDTAVYYCARDVRVIATGWATANALDAWGQGTQVTVSS VL: QSVLTQPPSVSGSPGKTVTISCAGTSSDVGYGNYVSWYQQLPGTAPKLLIFAVSYRASGIPDRFSGSKSGNTAFLTISGLQSEDEADYYCASYRSSNNAAVFGGGTHLTVL please.
0.00017

Numbers sourced from patent US20120148607A1.
